assay: chemical genetic growth profiling, strain panel (AID 1159580);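 note: tested at 20 µM; growth read once vehicle control cultures reached saturation at 30 °C; 1 = growth at the plate median or of vehicle wells; lower values mean less growth of the strain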; settings: S. cerevisiae deletion strains, growth OD, locus YBR171W, strain sec66, stronger effect = lower value
Hit rate of the full screen: of about 5,500 compounds, about 2,000 (36%) were called active. Not shown: some 18% with an inconclusive outcome. The list shows a part of the results.
assay-metric: normalized growth
One number for each entry.

Previously resolved entries follow.
Look up normalized growth: CC(=O)[C@H]1CCC2C3CC=C4C[C@@H](O)CC[C@]4(C)C3CC[C@@]21C (stereo partly drawn)
0.996

Next entry: O=c1c(-c2ccc(O)cc2)coc2cc(O)cc(O)c12
1.01

Now look at this one.
Returns the measured normalized growth for the input compound. Input: CC1(C)O[C@@H]2CC3C4CCC5=CC(=O)C=C[C@]5(C)[C@@]4(F)[C@@H](O)C[C@]3(C)[C@]2(C(=O)CO)O1 (stereo partly drawn)
1

----------
experiment: chemical genetic growth profiling, strain panel (AID 1159580);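 note: tested at 20 µM; growth read once vehicle control cultures reached saturation at 30 °C; 1 = growth at the plate median or of vehicle wells; lower values mean less growth of the strain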; details: S. cerevisiae deletion strains, growth OD, locus YBR021W, strain FUR4
Hit rate of the full screen: of about 5,500 compounds, about 2,000 (36%) were called active. Roughly 18% stayed inconclusive and do not appear here. Cut-off read from the data, not from the text of the source: active = normalized growth mostly below about 0.91 (no sharp cut-off); inconclusive = no clear call, values can overlap the other calls; inactive = mostly above about 0.92. Some of the results follow.
Entry note: the call must match one of class 1 (active), class 0 (inactive)

Study these solved cases before continuing.
Hi, do you know how COc1cc2c3cc1Oc1cc(ccc1O)C[C@@H]1c4c(cc(OC)c(O)c4Oc4ccc(cc4)C[C@@H]3N(C)CC2)CC[N+]1(C)C came out in this test?
class 0

Another molecule to check: CN1CCOC(c2ccccc2)c2ccccc2C1 (centres undefined)
class 0

NCCc1ccc(O)c(O)c1 , same question.
class 0

Try the molecule Cc1cc2cc3c(C)cc(=O)oc3c(C)c2o1
class 0

Proceed to O=C(O)c1nc2cc(Cl)c(Cl)cc2[nH]c1=O
class 0

Next up: NS(=O)(=O)c1cc2c(cc1C(F)(F)F)NCNS2(=O)=O
class 0

Also need NCCc1cccc(O)c1 , thanks.
class 0

For NCCc1ccc(O)cc1 then?
class 0

Next:
Entry O=C1CCc2cc(OCCCCc3nnnn3C3CCCCC3)ccc2N1 : call = ?
class 0

# iterate: COc1ccc(-c2coc3cc(O)cc(O)c3c2=O)cc1
class 0

Now this one: C[C@@H]1CC[C@@]2(OC1)OC1C(O)C3C4CC[C@H]5C[C@H](O[C@@H]6O[C@H](CO)[C@H](O[C@@H]7O[C@H](CO)[C@@H](O)[C@H](O[C@@H]8OC[C@@H](O)[C@H](O)[C@H]8O)[C@H]7O[C@@H]7O[C@H](CO)[C@H](O)[C@H](O[C@@H]8O[C@H](CO)[C@@H](O)[C@H](O)[C@H]8O)[C@H]7O)[C@H](O)[C@H]6O)[C@H](O)C[C@]5(C)C4CC[C@]3(C)C1[C@@H]2C (some centres undefined)
class 1

----------
For each record, write down the corresponding normalized growth.
experiment: chemical genetic growth profiling, strain panel (AID 1159580);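 note: tested at 20 µM; growth read once vehicle control cultures reached saturation at 30 °C; 1 = growth at the plate median or of vehicle wells; lower values mean less growth of the strain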; details: S. cerevisiae deletion strains, growth OD, locus YFR003C, strain YPI1, stronger effect = lower value
The campaign covered roughly 5,500 compounds. About 2,000 (36%) were called active. Roughly 18% stayed inconclusive and do not appear here. This is one part of the list.
Numbers only.

The cases that follow already have their normalized growth on record.
Would you kindly share the measured normalized growth for Fc1ccc(N/N=C\Cc2nnnn2-c2ccccc2)c(F)c1 ?
0.955

Next up: Clc1ccccc1N/N=C\Cc1nnnn1-c1ccccc1
0.97

For every listed record, write down its normalized growth.
1. Cc1nc(-c2ccc(C(F)(F)F)cn2)[nH]c(=O)c1Cl
2. Clc1ccc(-c2csc(Nc3ccccc3)n2)s1

0.929
0.933
